Tested on: Septoria tritici
Assay: In vivo preventive test on Septoria tritici (wheat)
Conditions: 500 ppm of active ingredient; wheat plants; 24 days after contamination
Assay Endpoint: Efficacy (%)
# number only, unit % dropped from output

Before answering, review these 6 worked examples.
Molecule	Units Text	Efficacy
Cn1nc(C(F)F)c(C(=S)N(Cc2cc(Cl)ccc2-c2cccs2)C2CC2)c1Cl	%	75
CC1CC1N(Cc1ccccc1-c1ccsc1)C(=O)c1c(C(F)F)nn(C)c1F (stereo not drawn)	%	79
Cn1nc(C(F)F)c(C(=O)N(Cc2cc(F)ccc2-c2ccoc2)C2CC2)c1F	%	80
Cn1ccc(-c2ccc(Cl)cc2CN(C(=O)c2c(C(F)F)nn(C)c2F)C2CC2)c1	%	86
Cn1nc(C(F)F)c(C(=O)N(Cc2cc(Cl)ccc2C2(C)CO2)C2CC2)c1F (stereo not drawn)	%	100
CC1OCC1c1ccccc1CN(C(=O)c1c(C(F)F)nn(C)c1Cl)C1CC1 (stereo not drawn)	%	90

**Query** I am curious: what Efficacy value has been reported for Cc1csc(-c2ccccc2CN(C(=O)c2c(C(F)F)nn(C)c2F)C2CC2)c1 ?
**Result** 100

**Query** Field entry: Cc1csc(-c2ccc(Cl)cc2CN(C(=O)c2c(C(F)F)nn(C)c2F)C2CC2)c1
**Result** 95

**Query** Field entry: Cn1nc(C(F)F)c(C(=O)N(Cc2cc(Cl)ccc2-c2csc3ccccc23)C2CC2)c1F
**Result** 86

**Query** Field entry: CC(C)c1ccc(-c2csc3ccccc23)cc1CN(C(=O)c1c(C(F)F)nn(C)c1F)C1CC1
**Result** 90
